biological target: Nuclear receptor subfamily 1 group I member 2 (Homo sapiens, UniProt O75469); assay: Agonist activity at human PXR in human HepG2 cells co-expressing luciferase gene under control of CYP3A4 promoter assessed as transcriptional activation incubated for 24 hrs by luminescence based analysis
metric: EC50 (nM)

> print(dat)
                            smiles.notation  value.observed
1  COc1ccc(OC)c(-n2nnc(C(=O)Nc3ccc(NC(C)=O)c(C(C)(C)C)c3)c2C)c1            2000
2  CCC[C@@H](C)Oc1ccc(C(C)(C)C)cc1NC(=O)c1nnn(-c2cc(C)ccc2OC)c1C             8.1
3  CCCCOc1ccc(C(C)(C)C)cc1NC(=O)c1nnn(-c2cc(OC)ccc2C)c1C            1660
4  COc1ccc(OC)c(-n2nnc(C(=O)Nc3ccccc3)c2C)c1           25000

---

Molecular target: Nuclear receptor subfamily 1 group I member 2 (Homo sapiens, UniProt O75469)
Sequence (O75469 whole entry): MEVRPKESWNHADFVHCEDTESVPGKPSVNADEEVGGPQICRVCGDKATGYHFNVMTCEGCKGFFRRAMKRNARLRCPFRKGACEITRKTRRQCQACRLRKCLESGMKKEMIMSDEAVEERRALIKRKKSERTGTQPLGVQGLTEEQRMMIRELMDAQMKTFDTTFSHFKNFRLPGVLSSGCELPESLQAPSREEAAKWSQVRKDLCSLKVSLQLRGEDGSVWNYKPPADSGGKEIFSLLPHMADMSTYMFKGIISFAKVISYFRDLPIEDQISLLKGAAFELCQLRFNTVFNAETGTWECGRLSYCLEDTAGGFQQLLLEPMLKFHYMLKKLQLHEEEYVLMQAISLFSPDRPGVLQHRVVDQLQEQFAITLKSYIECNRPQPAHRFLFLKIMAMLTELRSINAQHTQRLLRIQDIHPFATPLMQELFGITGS
Experiment: Antagonist activity at human PXR in human HepG2 cells co-expressing luciferase gene under control of CYP3A4 promoter assessed as inhibition in rifampicin-induced receptor activation at 30 uM incubated for 24 hrs by luminescence based analysis
Assay type: cell-based
Details: hepg2, 24 h
metric: inhibition (INH)

> print(dat)
                             smiles.notation  value.observed
 1  CCCCOc1ccc(C(C)(C)C)cc1NC(=O)c1nnn(-c2cc(OC)ccc2F)c1C      Not Active
 2  CCCCOc1ccc(C(C)(C)C)cc1NC(=O)c1nnn(-c2cc(OC)cc(OC)c2)c1C      Not Active
 3  CCCCOc1ccc(C(C)(C)C)cc1NC(=O)c1nnn(-c2ccncc2)c1C      Not Active
 4  COc1ccc(OC)c(-n2nnc(C(=O)Nc3cccc(N4CCOCC4)c3)c2C)c1      Not Active
 5  COc1ccc(OC)c(-n2nnc(C(=O)Nc3cc(C(C)(C)C)ccc3NC(C)=O)c2C)c1      Not Active
 6  CCCCOc1ccc(C(C)(C)C)cc1NC(=O)c1nnn(-c2cc(OC)ccc2Br)c1C      Not Active
 7  CCOc1cc(NC(=O)c2nnn(-c3cc(OC)ccc3OC)c2C)nc(OCC)n1      Not Active
 8  CCCCOc1ccc(C(C)(C)C)cc1NC(=O)c1nnn(-c2cccnc2)c1C      Not Active
 9  CCCCOc1ccc(C(C)(C)C)cc1NC(=O)c1nnn(-c2ccc3c(c2)OCO3)c1C      Not Active
10  COc1ccc(OC)c(-n2nnc(C(=O)Nc3ccc(NC(C)=O)c(C(C)(C)C)c3)c2C)c1      Not Active
11  CCc1cccc(NC(=O)c2nnn(-c3cc(OC)ccc3OC)c2C)c1      Not Active
12  CCCCOc1ccc(C(C)(C)C)cc1NC(=O)c1nnn(-c2ccc(OC)cc2OC)c1C      Not Active
13  CCCCOc1ccc(C(C)(C)C)cc1NC(=O)c1nnn(-c2ccc(OC)c(OC)c2)c1C      Not Active
14  COc1ccc(OC)c(-n2nnc(C(=O)Nc3ccccc3)c2C)c1      Not Active
15  CCCCOc1ccc(C(C)(C)C)cc1NC(=O)c1nnn(-c2cc(OC)ccc2C)c1C      Not Active
16  COc1ccc(OC)c(-n2nnc(C(=O)Nc3cc(C(C)(C)C)ccc3N)c2C)c1      Not Active
17  COc1ccc(OC)c(-n2nnc(C(=O)Nc3cc(C(C)(C)C)ccc3O)c2C)c1      Not Active
